# system_tested: CCR2 (Homo sapiens, UniProt P41597)
# Sequence (P41597 1-360 isoform P41597-2): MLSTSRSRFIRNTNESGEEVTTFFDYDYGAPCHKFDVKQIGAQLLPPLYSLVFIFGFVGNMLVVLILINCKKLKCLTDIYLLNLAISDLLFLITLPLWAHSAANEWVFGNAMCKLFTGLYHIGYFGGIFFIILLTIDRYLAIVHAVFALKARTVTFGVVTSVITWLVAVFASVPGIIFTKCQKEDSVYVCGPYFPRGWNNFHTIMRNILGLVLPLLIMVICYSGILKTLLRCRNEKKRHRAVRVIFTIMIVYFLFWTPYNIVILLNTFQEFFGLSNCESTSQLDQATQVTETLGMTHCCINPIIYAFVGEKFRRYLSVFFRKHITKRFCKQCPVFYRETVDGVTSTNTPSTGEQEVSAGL
pIC50: −log10 of the molar value.
value_type: pIC50

A. O=C(/C=C/c1ccc(Cl)c(Cl)c1)N1CCC(C(CO)N2CCC(c3cc[nH]n3)CC2)CC1 (stereo not shown)
B. O=C(O)C(C1CCN(C(=O)/C=C/c2ccc(Cl)c(Cl)c2)CC1)N1CCC(c2c[nH]c3cc(Cl)ccc23)CC1 (stereo not shown)
C. COc1cccc(C2CCN(C(CO)C3CCN(C(=O)/C=C/c4cc(F)cc(F)c4)CC3)CC2)c1 (stereo not shown)
D. COc1ccc(C2CCN(C(CO)C3CCN(C(=O)/C=C/c4cc(F)cc(F)c4)CC3)CC2)cc1 (stereo not shown)
Asked: // ascending sort on pIC50 for the entries above A complete answer lists every label in the requested sequence.
Given back: C, A, D, B
(C: 5.92, A: 6.68, D: 7.52, B: 9.00)
